For each of the compounds below, state its log10 IC50.
- Test system: A431
- experimentDescription: Inhibition of Cancer Cell Growth (Sulforhodamine B)
- Assay type: cell-based, Human
- conditionsUsed: Homo sapiens, A-431, 48 hours exposure, read-out: Inhibition of Cancer Cell Growth as Measured by Cell Number (IC50) A431
Hi team, quick reminder: these entries are log10 of IC50 (µg/mL).

// query log10 IC50 value for entry CN1CCC=C(C(=O)Nc2ccc3ncnc(Nc4cccc(Br)c4)c3c2)C1
-0.36

Please report the recorded log10 IC50 for COCC#CC(=O)Nc1ccc2ncnc(Nc3cccc(Br)c3)c2c1 .
-1.30

Any idea what its log10 IC50 is? The compound is COCCN(CC#CC(=O)Nc1ccc2ncnc(Nc3cccc(Br)c3)c2c1)CCOC
-2.00

Using the record for CN(C)CC=CC(=O)Nc1ccc2ncnc(Nc3cccc(Br)c3)c2c1 , report its log10 IC50.
-2.15

If you can, please state the reported log10 IC50 value of CSSC(C)C(=O)Nc1ccc2ncnc(Nc3cccc(Br)c3)c2c1 (stereo not drawn) .
0.03

Would you mind telling me what log10 IC50 value was observed for CN(C)c1c(Nc2ccc3ncnc(Nc4cccc(Br)c4)c3c2)c(=O)c1=O ?
0.45

Request the reported log10 IC50 associated with CCN1CCN(CC#CC(=O)Nc2ccc3ncnc(Nc4cccc(Br)c4)c3c2)CC1
-0.22

// log10 IC50 lookup, key: O=C(C#CCN1CCOCC1)Nc1ccc2ncnc(Nc3cccc(Br)c3)c2c1
-1.70

log10 IC50 for Nc1c(Nc2ccc3ncnc(Nc4cccc(Br)c4)c3c2)c(=O)c1=O ?
0.84
